Data origin: ChEMBL document CHEMBL1132803

Experiment: Second order rate constant was determined
Assay type: ADME
measured_attribute: Km (µM)
Report only the number, with the unit µM understood.

Which Km is listed for NC(CCS)C(=O)O (stereo unspecified) ? 69
